Target: CK1ε (Homo sapiens, UniProt P49674)
Sequence (P49674 whole entry): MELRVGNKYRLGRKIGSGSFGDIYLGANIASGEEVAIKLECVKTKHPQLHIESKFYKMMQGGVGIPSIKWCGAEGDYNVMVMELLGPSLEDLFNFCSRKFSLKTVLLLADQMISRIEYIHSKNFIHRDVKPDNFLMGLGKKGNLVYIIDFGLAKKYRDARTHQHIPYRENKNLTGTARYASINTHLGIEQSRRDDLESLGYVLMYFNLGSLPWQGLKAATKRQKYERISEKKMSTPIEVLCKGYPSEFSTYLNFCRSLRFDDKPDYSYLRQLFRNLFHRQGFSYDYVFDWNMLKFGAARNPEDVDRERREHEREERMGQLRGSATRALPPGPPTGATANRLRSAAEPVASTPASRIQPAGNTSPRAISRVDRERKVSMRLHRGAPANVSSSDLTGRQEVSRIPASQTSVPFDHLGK
Assay: CK1ε kinase assay (Caliper LabChip electrophoretic separation of fluoresceinated peptide substrate and product)
Type: biochemical
Conditions: 200 pM CK1ε, 50 μM ATP, 1.5 μM peptide, 22 hours at room temperature; read-out: CK1ε IC50 range
pIC50: −log10 of the molar value.
assay_metric: pIC50

{"molecule": "CC(C)(C)C1CN(C(=O)NC2CC(F)(F)C2)Cc2c(C(N)=O)c(-c3ccc(F)c(Cl)c3)nn21 (single isomer, unassigned) [Compound A121]", "pIC50": "7.00 to 8.00"}
{"molecule": "CC12CC3CC(C)(C1)CC(NC(=O)N1CCn4nc(-c5ccc(Cl)c(Cl)c5)c(C(N)=O)c4C1)(C3)C2", "pIC50": "8.00 to 11.00"}
{"molecule": "CC(C)(C)NC(=O)N1Cc2c(C(N)=O)c(-c3ccc(F)c(Cl)c3)nn2C(CCO)C1 (single isomer, unassigned)", "pIC50": "8.00 to 11.00"}

Problem: Could you share which pIC50 value was measured for CC(C)(C)NC(=O)N1CCn2nc(-c3cccc(C(F)(F)F)c3)c(C(N)=O)c2C1 ?
Solution: 5.70 to 7.00

Problem: Endpoint output: pIC50 of NC(=O)c1c(-c2cccc(Cl)c2)nn2c1CN(C(=O)NC13CCC(CC1)CC3)CC2 . Value?
Solution: 8.00 to 11.00

Problem: Please give the measured pIC50 for this molecule: CC(C)(C)NC(=O)N1Cc2c(C(N)=O)c(-c3cccc(Cl)c3)nn2C(CF)C1 (stereo not drawn)
Solution: 8.00 to 11.00

Problem: Look up pIC50 for this molecule: CC(C)(C)NC(=O)N1CCn2nc(-c3ccc(S(C)(=O)=O)cc3)c(C(N)=O)c2C1
Solution: 5.70 to 7.00

Problem: State the recorded pIC50 for this entry: NC(=O)c1c(-c2ccc(F)c(Cl)c2)nn2c1CN(C(=O)N[C@H]1C[C@@H](c3ccc(F)cc3)C1)CC2
Solution: 8.00 to 11.00

Problem: Which pIC50 reading was recorded for the molecule N#Cc1ccc(C23CCC(NC(=O)N4CCn5nc(-c6ccc(F)c(Cl)c6)c(C(N)=O)c5C4)(CC2)CC3)cc1 ?
Solution: 8.00 to 11.00

Problem: Return reported pIC50; argument: CC(C)(C)NC(=O)N1CCn2nc(-c3cccc(F)c3)c(C(N)=O)c2C1
Solution: 7.00 to 8.00

Problem: Which pIC50 value is on record for N#Cc1ccc(NC(=O)N2CCn3nc(-c4cccc(Cl)c4)c(C(N)=O)c3C2)cc1C(F)(F)F ?
Solution: 8.00 to 11.00

Problem: Need pIC50 of CC(C)(C)NC(=O)N1CCn2nc(-c3cccc(NS(C)(=O)=O)c3)c(C(N)=O)c2C1 , thanks.
Solution: 5.70 to 7.00

Problem: For the molecule NC(=O)c1c(-c2ccc(F)c(Cl)c2)nn2c1CN(C(=O)NC1CC(F)(F)C1)C[C@@H]2CF , what pIC50 is on record?
Solution: 8.00 to 11.00

Problem: Reported pIC50 for NC(=O)c1c(-c2ccc(F)c(Cl)c2)nn2c1CN(C(=O)NC1CCCC1)CC2C(F)F (stereo not drawn) [Compound A12] : what is it?
Solution: 8.00 to 11.00

Problem: # lookup: pIC50 of CC(C)(CO)NC(=O)N1CCn2nc(-c3cccc(Cl)c3)c(C(N)=O)c2C1
Solution: 8.00 to 11.00
